# subject_of_test: Recombinant human p38α (Homo sapiens)
# Construct: GST
# Sequence (Q16539 whole entry): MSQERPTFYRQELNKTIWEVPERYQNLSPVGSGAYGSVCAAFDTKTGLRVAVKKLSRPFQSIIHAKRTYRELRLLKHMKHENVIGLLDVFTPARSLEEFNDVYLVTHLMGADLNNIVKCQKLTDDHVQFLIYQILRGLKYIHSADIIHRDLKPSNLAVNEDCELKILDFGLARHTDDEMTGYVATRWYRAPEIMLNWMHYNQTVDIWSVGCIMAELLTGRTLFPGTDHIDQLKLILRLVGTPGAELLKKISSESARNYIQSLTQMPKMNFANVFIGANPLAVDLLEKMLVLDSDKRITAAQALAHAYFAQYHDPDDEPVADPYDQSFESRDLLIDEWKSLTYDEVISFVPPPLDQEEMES
# protocol_summary: Fluorescence anisotropy kinase binding assay
# measurement_parameters: 12 nM p38α, 5 nM fluorescent ligand
quantity_kind: IC50

q: Give Recombinant human p38α (Homo sapiens) IC50 for Cc1c(F)cc(C(=O)Nc2ccon2)cc1-c1ccc(C(=O)NCC(C)(C)C)cn1
a: < 50 nM
